- Tested on: MDA MB231 (breast cancer cells)
- PROTOCOL NOTES: Cytotoxicity in human cancer cell lines, MDA MB231
- Format: cell-based
- ASSAY SETUP: MDA-MB-231, MDA MB231, 72 h, with uridine, read-out: Cytotoxicity IC50 with Uridine
REPORTED METRIC: IC50

Given the compound `Cc1c(-c2ccc(-c3ccccc3F)cc2)nc2ccc(F)cc2c1C(=O)O` , what is its reported IC50?
> 100 µM

---

- Test system: HEPG2 (liver hepatocellular cancer cells)
- PROTOCOL NOTES: Cytotoxicity in human cancer cell lines, HEPG2
- Assay type: cell-based
- ASSAY SETUP: HepG2, 72 h, read-out: Cytotoxicity IC50
REPORTED METRIC: IC50 (nM)
Answers are plain numbers, in nM.

Notebook entry, HEPG2 (liver hepatocellular cancer cells) assay: IC50 of Cc1c(-c2ccc(-c3ccccc3F)cc2)nc2ccc(F)cc2c1C(=O)O [Brequinar, brequinar] = ?
46

---

- EXPERIMENTAL SYSTEM: recombinant hDHODH (Homo sapiens (Human), UniProt Q02127)
- Sequence (Q02127 31-395): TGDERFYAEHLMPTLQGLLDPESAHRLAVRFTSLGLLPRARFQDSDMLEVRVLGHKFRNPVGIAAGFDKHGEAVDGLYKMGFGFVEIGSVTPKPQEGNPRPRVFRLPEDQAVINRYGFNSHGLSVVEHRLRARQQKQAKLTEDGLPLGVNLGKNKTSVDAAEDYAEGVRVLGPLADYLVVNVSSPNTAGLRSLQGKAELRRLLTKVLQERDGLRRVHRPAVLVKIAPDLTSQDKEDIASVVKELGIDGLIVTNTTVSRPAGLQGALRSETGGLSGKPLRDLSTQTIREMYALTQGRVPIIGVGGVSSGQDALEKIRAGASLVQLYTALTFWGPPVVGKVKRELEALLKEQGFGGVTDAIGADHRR
- PROTOCOL NOTES: hDHODH inhibition assay (DCIP reduction)
- Format: biochemical
- ASSAY SETUP: in vitro assay; means ± SE of three experiments; read-out: hDHODH IC50 ± SE
REPORTED METRIC: pIC50
Answers are plain numbers, as −log10 of the molar value.

Here are 3 compounds together with their reported answers.
| STRUCTURE NOTATION | EXPERIMENTAL SYSTEM | pIC50 |
| --- | --- | --- |
| Cc1cc(Oc2ccccc2)c(C)cc1NC(=O)c1c(O)nn2ccccc12 | recombinant hDHODH (Homo sapiens (Human), UniProt Q02127) | 7.37 |
| Cc1cc(NC(=O)c2c(O)nn3ccccc23)ccc1Oc1ccccc1 | recombinant hDHODH (Homo sapiens (Human), UniProt Q02127) | 6.32 |
| O=C(Nc1ccc(Oc2ccccc2)cc1)c1c(O)nn2ccccc12 | recombinant hDHODH (Homo sapiens (Human), UniProt Q02127) | 6.12 |

Here is the next item to consider.
For `Cn1nc(O)c(C(=O)Nc2c(F)c(F)c(-c3ccccc3)c(F)c2F)n1` , what is its reported pIC50?
7.35

---

- EXPERIMENTAL SYSTEM: recombinant hDHODH (Homo sapiens (Human), UniProt Q02127)
- PROTOCOL NOTES: hDHODH inhibition assay (DCIP reduction)
- Assay type: biochemical
- ASSAY SETUP: enzymatic assay, values in text; read-out: hDHODH IC50
Please respond with reported IC50 for every item in the list.
Answers are plain numbers, in nM.

| COMPOUND | IC50, nM |
| --- | --- |
| O=C(Nc1ccc(Oc2ccccc2)cc1)c1c(O)nn2ccccc12 [Compound 8] | 760 |

// for each compound below, give its IC50
1. O=C(Nc1c(F)c(F)c(-c2ccccc2)c(F)c1F)c1c(O)nn2c1CCCC2 [Compound 30]
2. Cc1cc(Oc2ccccc2)c(C)cc1NC(=O)c1c(O)nn2ccccc12 [Compound 10]
3. O=C(Nc1c(F)c(F)c(-c2cccc(C(F)(F)F)c2)c(F)c1F)c1c(O)nn2ccccc12 [Compound 33]
4. O=C(Nc1c(F)c(F)c(-c2cccc(F)c2)c(F)c1F)c1c(O)nn2ccccc12 [Compound 32]
5. Cc1cccc2c(C(=O)Nc3c(F)c(F)c(-c4ccccc4)c(F)c3F)c(O)nn12 [Compound 5]

[5.9, 43, 2.3, 2, 4.3]
